- assay.method.text: in vitro
- experimental.context: African green monkey, Cell viability (%), 2.5 μM
observation.type: viability at 2.5 µM (%)

substance_smiles=CCN(CC)CCNC(=O)c1c(C)[nH]c(/C=C2\C(=O)Nc3ccc(F)cc32)c1C recorded_result=68.8

====

- assay.method.text: in vitro
- experimental.context: human, U-87 MG cell viability (%)
observation.type: viability at 10 µM (%)

molecule="CN(C)C(=O)C(CCN1CCC(O)(c2ccc(Cl)cc2)CC1)(c1ccccc1)c1ccccc1 [Lopera-mide]" observation_type="viability at 10 µM" unit_abbrev=% recorded_result=97.5
molecule=O[C@H]1[C@H]2c3cc4c(cc3CN3CCC(=C[C@@H]1O)[C@H]23)OCO4 observation_type="viability at 10 µM" unit_abbrev=% recorded_result=61.2
molecule=O=C(CCCN1CCC2(CC1)C(=O)NCN2c1ccccc1)c1ccc(F)cc1 observation_type="viability at 10 µM" unit_abbrev=% recorded_result=97
molecule=[N-]=[N+]=CC(=O)OC[C@H](N)C(=O)O observation_type="viability at 10 µM" unit_abbrev=% recorded_result=84
molecule=O=C1NCN(c2ccccc2)C12CCN(CCCC(c1ccc(F)cc1)c1ccc(F)cc1)CC2 observation_type="viability at 10 µM" unit_abbrev=% recorded_result=93.8
molecule=CC[C@@]1([C@@H]2O[C@@H]([C@H]3O[C@@](O)(CO)[C@H](C)C[C@@H]3C)C[C@@H]2C)CC[C@H]([C@]2(C)CC[C@]3(C[C@H](O)[C@@H](C)[C@@H]([C@@H](C)[C@@H](OC)[C@H](C)C(=O)O)O3)O2)O1 observation_type="viability at 10 µM" unit_abbrev=% recorded_result=79.7
molecule=CNc1ccc2oc(C[C@H]3O[C@@]4(CC[C@H]3C)O[C@H]([C@H](C)C(=O)c3ccc[nH]3)[C@H](C)C[C@H]4C)nc2c1C(=O)O observation_type="viability at 10 µM" unit_abbrev=% recorded_result=58.2
molecule=COc1ccc2cc1Oc1ccc(cc1)C[C@H]1c3cc(c(OC)cc3CCN1C)Oc1c(OC)c(OC)cc3c1[C@H](C2)N(C)CC3 observation_type="viability at 10 µM" unit_abbrev=% recorded_result=98.9
molecule=CC(=O)O[C@@H]1C[C@H]2C(C)(C)C(=O)C=C[C@]2(C)[C@H]2CC[C@@]3(C)[C@H](c4ccoc4)OC(=O)[C@H]4O[C@]43[C@@]21C observation_type="viability at 10 µM" unit_abbrev=% recorded_result=75.7
molecule=CO[C@@H]1[C@@H](O[C@@H]2O[C@H](C)[C@@H](O[C@H]3C[C@@](C)(O)[C@@H](OC(=O)CC(C)C)[C@H](C)O3)[C@H](N(C)C)[C@H]2O)[C@@H](CC=O)C[C@@H](C)[C@@H](O)/C=C/C=C/C[C@@H](C)OC(=O)C[C@H]1OC(C)=O observation_type="viability at 10 µM" unit_abbrev=% recorded_result=100

====

- assay.method.text: in vitro
- experimental.context: African green monkey, Vero cell viability (%)
observation.type: viability at 20 µM (%)

compound="CS(=O)(=O)CCNCc1ccc(-c2ccc3ncnc(Nc4ccc(OCc5cccc(F)c5)c(Cl)c4)c3c2)o1 [Lapatinib]" observation_type="viability at 20 µM" recorded_result=85

====

- assay.method.text: in vitro
- experimental.context: human, U-87 MG cell viability (%)
Entries annotated with measured viability at 0.37 µM
observation.type: viability at 0.37 µM (%)

compound="CN(C)C(=O)C(CCN1CCC(O)(c2ccc(Cl)cc2)CC1)(c1ccccc1)c1ccccc1 [Lopera-mide]" recorded_result=98.7
compound=CC[C@@]1([C@@H]2O[C@@H]([C@H]3O[C@@](O)(CO)[C@H](C)C[C@@H]3C)C[C@@H]2C)CC[C@H]([C@]2(C)CC[C@]3(C[C@H](O)[C@@H](C)[C@@H]([C@@H](C)[C@@H](OC)[C@H](C)C(=O)O)O3)O2)O1 recorded_result=82
compound=O[C@H]1[C@H]2c3cc4c(cc3CN3CCC(=C[C@@H]1O)[C@H]23)OCO4 recorded_result=92.9
compound=CNc1ccc2oc(C[C@H]3O[C@@]4(CC[C@H]3C)O[C@H]([C@H](C)C(=O)c3ccc[nH]3)[C@H](C)C[C@H]4C)nc2c1C(=O)O recorded_result=103
compound=COc1ccc2cc1Oc1ccc(cc1)C[C@H]1c3cc(c(OC)cc3CCN1C)Oc1c(OC)c(OC)cc3c1[C@H](C2)N(C)CC3 recorded_result=101
compound=CO[C@@H]1[C@@H](O[C@@H]2O[C@H](C)[C@@H](O[C@H]3C[C@@](C)(O)[C@@H](OC(=O)CC(C)C)[C@H](C)O3)[C@H](N(C)C)[C@H]2O)[C@@H](CC=O)C[C@@H](C)[C@@H](O)/C=C/C=C/C[C@@H](C)OC(=O)C[C@H]1OC(C)=O recorded_result=90.4
compound=O=C(CCCN1CCC2(CC1)C(=O)NCN2c1ccccc1)c1ccc(F)cc1 recorded_result=99.2
compound=CC(=O)O[C@@H]1C[C@H]2C(C)(C)C(=O)C=C[C@]2(C)[C@H]2CC[C@@]3(C)[C@H](c4ccoc4)OC(=O)[C@H]4O[C@]43[C@@]21C recorded_result=81.9
compound=O=C1NCN(c2ccccc2)C12CCN(CCCC(c1ccc(F)cc1)c1ccc(F)cc1)CC2 recorded_result=97

====

- assay.method.text: in vitro
- experimental.context: African green monkey, Cell viability (%), 6.67 μM
observation.type: viability at 6.67 µM (%)

substance_smiles=CO[C@@H]1[C@@H](O[C@@H]2O[C@H](C)[C@@H](O[C@H]3C[C@@](C)(O)[C@@H](OC(=O)CC(C)C)[C@H](C)O3)[C@H](N(C)C)[C@H]2O)[C@@H](CC=O)C[C@@H](C)[C@@H](O)/C=C/C=C/C[C@@H](C)OC(=O)C[C@H]1OC(C)=O recorded_result=93

====

Entries annotated with measured viability at 0.74 µM
- assay.method.text: in vitro
- experimental.context: human, U-87 MG cell viability (%)
observation.type: viability at 0.74 µM (%)

substance_smiles=CC(C)(C)c1cc(/C=C(\C#N)C(N)=S)cc(C(C)(C)C)c1O observation_type="viability at 0.74 µM" unit_abbrev=% recorded_result=85
substance_smiles=CCN(CC)CCNC(=O)c1c(C)[nH]c(/C=C2\C(=O)Nc3ccc(F)cc32)c1C observation_type="viability at 0.74 µM" unit_abbrev=% recorded_result=110
substance_smiles=CC(C)(C)c1cc(C=C(C#N)C#N)cc(C(C)(C)C)c1O observation_type="viability at 0.74 µM" unit_abbrev=% recorded_result=85

====

- assay.method.text: in vitro
- experimental.context: human, Huh7 cell viability (%)
observation.type: viability at 3.33 µM (%)

molecule="O=C(CCCN1CCC2(CC1)C(=O)NCN2c1ccccc1)c1ccc(F)cc1 [Spiperone]" unit_abbrev=% recorded_result=79.2
molecule="CNc1ccc2oc(C[C@H]3O[C@@]4(CC[C@H]3C)O[C@H]([C@H](C)C(=O)c3ccc[nH]3)[C@H](C)C[C@H]4C)nc2c1C(=O)O [Calcimycin]" unit_abbrev=% recorded_result=50.5
molecule="CC(C)(C)c1cc(/C=C(\\C#N)C(N)=S)cc(C(C)(C)C)c1O [Tyrphostin AG 879]" unit_abbrev=% recorded_result=98.8
molecule="CC(C)(C)c1cc(C=C(C#N)C#N)cc(C(C)(C)C)c1O [Tyrphostin A9]" unit_abbrev=% recorded_result=89.2
molecule="O[C@H]1[C@H]2c3cc4c(cc3CN3CCC(=C[C@@H]1O)[C@H]23)OCO4 [Lycorine]" unit_abbrev=% recorded_result=68.1

====

- assay.method.text: in vitro
- experimental.context: African green monkey, Cell viability (%)
observation.type: viability at 0.247 µM (%)

substance_smiles=CO[C@@H]1[C@@H](O[C@@H]2O[C@H](C)[C@@H](O[C@H]3C[C@@](C)(O)[C@@H](OC(=O)CC(C)C)[C@H](C)O3)[C@H](N(C)C)[C@H]2O)[C@@H](CC=O)C[C@@H](C)[C@@H](O)/C=C/C=C/C[C@@H](C)OC(=O)C[C@H]1OC(C)=O unit_abbrev=% recorded_result=102

====

Entries annotated with measured viability at 0.37 µM
- assay.method.text: in vitro
- experimental.context: human, Huh7 cell viability (%)
observation.type: viability at 0.37 µM (%)

compound="CS(=O)(=O)CCNCc1ccc(-c2ccc3ncnc(Nc4ccc(OCc5cccc(F)c5)c(Cl)c4)c3c2)o1 [Lapatinib]" observation_type="viability at 0.37 µM" recorded_result=103
compound="CN(C)C(=O)C(CCN1CCC(O)(c2ccc(Cl)cc2)CC1)(c1ccccc1)c1ccccc1 [Loperamide]" observation_type="viability at 0.37 µM" recorded_result=91.8
compound="CNc1ccc2oc(C[C@H]3O[C@@]4(CC[C@H]3C)O[C@H]([C@H](C)C(=O)c3ccc[nH]3)[C@H](C)C[C@H]4C)nc2c1C(=O)O [Calcimycin]" observation_type="viability at 0.37 µM" recorded_result=98
compound="O=C(CCCN1CCC2(CC1)C(=O)NCN2c1ccccc1)c1ccc(F)cc1 [Spiperone]" observation_type="viability at 0.37 µM" recorded_result=99.5
compound="CC(=O)O[C@@H]1C[C@H]2C(C)(C)C(=O)C=C[C@]2(C)[C@H]2CC[C@@]3(C)[C@H](c4ccoc4)OC(=O)[C@H]4O[C@]43[C@@]21C [Gedunin]" observation_type="viability at 0.37 µM" recorded_result=97.4
